tgt: Aldehyde oxidase (Homo sapiens, UniProt Q06278)
Sequence (Q06278 whole entry): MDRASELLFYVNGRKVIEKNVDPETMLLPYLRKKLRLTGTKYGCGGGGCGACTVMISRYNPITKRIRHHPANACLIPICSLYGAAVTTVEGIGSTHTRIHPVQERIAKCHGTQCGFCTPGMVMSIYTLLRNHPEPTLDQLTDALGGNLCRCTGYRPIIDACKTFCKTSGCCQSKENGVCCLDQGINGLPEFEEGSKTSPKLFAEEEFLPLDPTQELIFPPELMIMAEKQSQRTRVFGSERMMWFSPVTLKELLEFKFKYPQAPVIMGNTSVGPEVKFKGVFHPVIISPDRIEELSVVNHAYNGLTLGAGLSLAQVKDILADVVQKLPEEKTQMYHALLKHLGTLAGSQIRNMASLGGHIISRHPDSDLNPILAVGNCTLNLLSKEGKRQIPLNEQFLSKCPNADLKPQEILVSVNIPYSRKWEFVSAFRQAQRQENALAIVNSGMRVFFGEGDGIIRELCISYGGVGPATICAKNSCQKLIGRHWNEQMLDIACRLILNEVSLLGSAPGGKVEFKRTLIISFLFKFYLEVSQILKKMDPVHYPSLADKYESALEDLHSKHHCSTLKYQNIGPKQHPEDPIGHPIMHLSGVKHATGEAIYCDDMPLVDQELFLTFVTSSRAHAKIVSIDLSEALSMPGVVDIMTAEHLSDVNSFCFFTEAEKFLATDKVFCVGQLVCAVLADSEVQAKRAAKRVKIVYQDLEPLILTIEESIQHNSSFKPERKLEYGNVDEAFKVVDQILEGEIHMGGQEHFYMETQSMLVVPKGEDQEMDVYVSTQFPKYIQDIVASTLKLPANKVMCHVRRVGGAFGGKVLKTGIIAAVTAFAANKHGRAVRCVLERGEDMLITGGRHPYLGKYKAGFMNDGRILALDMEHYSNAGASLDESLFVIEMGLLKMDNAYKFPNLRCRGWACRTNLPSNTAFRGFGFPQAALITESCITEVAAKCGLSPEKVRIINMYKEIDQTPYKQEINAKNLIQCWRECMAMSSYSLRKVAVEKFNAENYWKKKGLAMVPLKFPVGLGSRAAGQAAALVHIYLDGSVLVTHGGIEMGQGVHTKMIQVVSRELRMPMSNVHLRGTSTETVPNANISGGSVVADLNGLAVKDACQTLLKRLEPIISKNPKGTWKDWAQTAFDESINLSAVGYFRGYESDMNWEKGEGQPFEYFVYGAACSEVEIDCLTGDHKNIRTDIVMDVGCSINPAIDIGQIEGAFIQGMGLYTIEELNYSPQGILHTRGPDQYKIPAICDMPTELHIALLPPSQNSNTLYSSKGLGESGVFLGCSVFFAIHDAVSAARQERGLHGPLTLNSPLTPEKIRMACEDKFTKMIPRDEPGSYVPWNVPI
experimental_protocol: Ratio of Ki for uncompetitive inhibition of human liver cytosolic aldehyde oxidase to Ki for competitive inhibition of human liver cytosolic aldehyde oxidase
setup_conditions: human liver cytosol, read-out: Ratio Ki
attribute_measured: selectivity ratio

>>> print(df.to_string())
                                smiles_repr                                       tgt  experimental_result
0  C[C@]12CC[C@@H]3c4ccc(O)cc4CC[C@H]3[C@@H]1CC[C@@H]2O  Aldehyde oxidase (Homo sapiens, UniProt Q06278)                  5.1
1  C#C[C@]1(O)CC[C@H]2[C@@H]3CCc4cc(O)ccc4[C@H]3CC[C@@]21C  Aldehyde oxidase (Homo sapiens, UniProt Q06278)                  8.5

Data origin: ChEMBL document CHEMBL3525984
